- System Name: T1R umami taste receptor (Homo sapiens, UniProt Q7RTX0+Q7RTX1)
- Sequence (Q7RTX1 21-841): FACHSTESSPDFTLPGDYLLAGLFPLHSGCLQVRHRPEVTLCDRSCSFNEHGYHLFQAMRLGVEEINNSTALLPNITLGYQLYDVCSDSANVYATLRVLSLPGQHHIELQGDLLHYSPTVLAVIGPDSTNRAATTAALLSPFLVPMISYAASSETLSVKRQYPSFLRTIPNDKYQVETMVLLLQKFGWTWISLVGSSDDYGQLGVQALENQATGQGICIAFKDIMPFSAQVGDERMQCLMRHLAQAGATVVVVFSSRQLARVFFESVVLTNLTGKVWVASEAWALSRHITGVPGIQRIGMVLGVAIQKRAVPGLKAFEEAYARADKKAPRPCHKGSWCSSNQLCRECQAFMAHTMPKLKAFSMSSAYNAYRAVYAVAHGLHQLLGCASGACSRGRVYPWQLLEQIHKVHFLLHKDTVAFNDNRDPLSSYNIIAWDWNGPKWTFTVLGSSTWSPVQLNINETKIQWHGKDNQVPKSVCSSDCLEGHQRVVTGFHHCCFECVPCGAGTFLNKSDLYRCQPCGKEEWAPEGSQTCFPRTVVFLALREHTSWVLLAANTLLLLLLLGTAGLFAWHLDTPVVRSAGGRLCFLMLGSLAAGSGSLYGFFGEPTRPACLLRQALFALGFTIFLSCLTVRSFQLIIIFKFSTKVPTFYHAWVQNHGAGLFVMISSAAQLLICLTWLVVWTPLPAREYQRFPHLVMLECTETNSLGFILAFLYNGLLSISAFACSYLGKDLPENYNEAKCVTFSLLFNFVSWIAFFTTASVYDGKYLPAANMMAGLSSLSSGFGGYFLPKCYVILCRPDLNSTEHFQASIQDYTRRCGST
- Sequence (Q7RTX0 21-852): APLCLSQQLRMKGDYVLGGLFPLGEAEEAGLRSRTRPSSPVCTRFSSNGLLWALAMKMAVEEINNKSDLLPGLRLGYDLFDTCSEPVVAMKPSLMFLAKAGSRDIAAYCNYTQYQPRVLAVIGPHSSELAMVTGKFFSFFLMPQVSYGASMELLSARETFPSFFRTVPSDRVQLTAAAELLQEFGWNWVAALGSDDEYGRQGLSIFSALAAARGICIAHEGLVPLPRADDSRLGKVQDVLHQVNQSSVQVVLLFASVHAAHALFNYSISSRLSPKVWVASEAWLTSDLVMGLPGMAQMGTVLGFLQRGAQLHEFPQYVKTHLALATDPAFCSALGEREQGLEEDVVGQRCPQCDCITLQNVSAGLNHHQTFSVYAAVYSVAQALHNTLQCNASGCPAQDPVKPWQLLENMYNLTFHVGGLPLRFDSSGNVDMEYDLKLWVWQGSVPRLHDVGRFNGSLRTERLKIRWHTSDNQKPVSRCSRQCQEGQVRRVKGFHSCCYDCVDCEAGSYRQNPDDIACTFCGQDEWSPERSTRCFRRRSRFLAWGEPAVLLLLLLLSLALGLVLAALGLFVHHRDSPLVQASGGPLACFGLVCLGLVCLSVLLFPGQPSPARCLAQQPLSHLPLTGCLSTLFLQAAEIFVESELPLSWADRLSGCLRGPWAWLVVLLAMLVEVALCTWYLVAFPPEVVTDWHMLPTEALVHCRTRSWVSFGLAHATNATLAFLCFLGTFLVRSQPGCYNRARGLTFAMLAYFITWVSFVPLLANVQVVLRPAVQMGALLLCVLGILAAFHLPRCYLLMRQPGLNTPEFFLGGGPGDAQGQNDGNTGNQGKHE
- Measurement Notes: in vitro cell-based assay, enhancement of MSG binding at umami taste receptor
- Conditions Used: cells that express the T1R umami taste receptor, from dose-binding curves
List of EC50 values.

# Compound, Inequality Operator, EC50, µM
data = [
    ("CCC(C)C(=O)NCCCCNC(=O)/C=C/c1ccccc1 (centres unmarked) [Compound 109]", ">", 50),
    ("CC(=O)OC/C=C(\\C)C(=O)NCCCCNC(=O)/C=C/c1ccccc1 [Compound 168]", "<", 1),
    ("C/C=C(\\C)C(=O)NCCCCNC(=O)c1ccc(OC)cc1 [Compound 105]", "=", 12),
    ("C/C=C(\\C)C(=O)NCCCCNC(=O)c1ccc(C)cc1 [Compound 102]", "=", 8),
    ("C/C=C(\\C)C(=O)NCCCCNC(=O)/C=C/c1ccc(OC)cc1OC [Compound 131]", "<", 1),
]
